# Test system: SF-539 CNS
# protocol: NCI tumour cell line growth inhibition, 48 h
# reported GI50; entries follow

[
  {
    "compound": "COc1cc(O)c2c3c(ccnc13)-c1ccccc1N2",
    "GI50": "3.33 µM"
  },
  {
    "compound": "C=C1C(=O)O[C@H]2[C@H]1CC/C(COC(=O)NCc1ccc(Cn3c(=O)sn(CCCC)c3=O)cc1)=C\\CC[C@@]1(C)O[C@@H]21",
    "GI50": "1.68 µM"
  },
  {
    "compound": "O=C1C(C(Nc2ccccc2)c2ccccc2)=C([O-])c2ccccc21.O=C1C(C(Nc2ccccc2)c2ccccc2)=C([O-])c2ccccc21.[Ni+2] (centres undefined)",
    "GI50": "3.66 µM"
  },
  {
    "compound": "Cc1cc2nc(CS)[nH]c2cc1C",
    "GI50": "20.5 µM"
  }
]

Name the reported GI50 value associated with the compound C=C1CC[C@@H]2C(C)(C)[C@H](O)CC[C@@]2(C)[C@@H]1COc1ccc2ccc(=O)oc2c1
29.9 µM

* * *

# Tested on: HOP-92 NSCLC
# protocol: NCI tumour cell line growth inhibition, 48 h
metric: TGI (µM)
Give just the numeric value; µM need not be written.

[
  {
    "compound": "CC(=O)Oc1cn(-c2ccc(Cl)cc2)nc1C1=NN(C(C)=O)C(c2ccc(F)cc2F)O1 (stereo not given)",
    "TGI (µM)": 71.6
  },
  {
    "compound": "N=c1c2c(=S)n(-c3ccccc3)c(=S)n(-c3ccccc3)c2nc(SCCCN2CCCCC2)n1-c1ccccc1",
    "TGI (µM)": 3.28
  },
  {
    "compound": "CN(C)C=Nc1ccc2c3c(cccc13)-c1ccccc1-2",
    "TGI (µM)": 24.9
  }
]

Proceed to the following item.
Name the reported TGI value associated with the compound O=C1/C(=C/c2ccc(Cl)cc2Cl)CN(S(=O)(=O)c2ccccc2)C/C1=C\c1ccc(Cl)cc1Cl
5.55

* * *

# System: T-47D breast
# protocol: NCI tumour cell line growth inhibition, 48 h
metric: GI50

[
  {
    "compound": "O=C(O)c1ccc2nc(-c3ccc(OCCCCCOc4ccc(-c5nc6ccc(C(=O)O)cc6[nH]5)cc4)cc3)[nH]c2c1",
    "metric": "GI50",
    "result": "> 100 µM"
  },
  {
    "compound": "c1ccc(-c2n(Cc3ccc4ccccc4n3)cc[n+]2Cc2ccc3ccccc3n2)cc1",
    "metric": "GI50",
    "result": "0.498 µM"
  },
  {
    "compound": "CCOC(=O)c1cnc2c(C)cc(C)cc2c1NCCCN(C)C",
    "metric": "GI50",
    "result": "4.73 µM"
  },
  {
    "compound": "COc1ccc2cnc(N)c(C#Cc3cc(C(=O)Nc4ccc(CN5CCN(C)CC5)c(C(F)(F)F)c4)cnc3C)c2c1",
    "metric": "GI50",
    "result": "> 50 µM"
  },
  {
    "compound": "COc1ccc2c(c1)C(=Nc1ccc(F)c(F)c1F)c1c-2c(Nc2ccc(F)c(F)c2F)nc2ccccc12",
    "metric": "GI50",
    "result": "> 100 µM"
  },
  {
    "compound": "O=S(=O)(Nc1cccc(Cl)c1)c1ccc(-c2cnc(C3CC3)o2)cc1",
    "metric": "GI50",
    "result": "0.519 µM"
  },
  {
    "compound": "COc1cc(O)c2c3c(ccnc13)-c1ccccc1N2",
    "metric": "GI50",
    "result": "8.32 µM"
  },
  {
    "compound": "O=C(c1ccccc1)N(C(=S)NCCc1ccc(Cl)cc1)c1ccc(Cl)cc1",
    "metric": "GI50",
    "result": "6.24 µM"
  }
]

Name the reported GI50 value associated with the compound Cc1cc(Cl)ccc1Nc1nc(C(F)(F)F)ccc1C(=O)N/N=C/c1cccc(O)c1
0.112 µM

Similarly, COc1ccc(-c2nc(S(=O)(=O)c3ccccc3)c(S(=O)CC(=O)N3CCC(C)CC3)o2)cc1 (stereo unspecified) ?
1.71 µM

Similarly, N#Cc1cc2c(cc1Cl)SC(=Nc1ccccc1)N(S(=O)(=O)c1ccc(Cl)cc1)S2(=O)=O ?
19.9 µM
